- Procedure summary: WST-8 toxicity in MEL cells
- Assay type: cell-based, mouse
- Assay context: mouse, wild type MEL cells; Wild Type MEL, WST-8 assay after ≥24 hours of incubation
Quantity name: EC90

1. CC(C)c1cccc(=O)c(O)c1: 24 µM

====

- Procedure summary: WST-8 toxicity in Caco-2 cells
- Assay context: human
Quantity name: EC90

1) CC(C)c1cccc(=O)c(O)c1 [hinokitiol]: > 100 µM

====

- Procedure summary: Iron (III) binding affinity, EDTA or citrate competition assay
- Assay context: estimated from known pFe of EDTA (citrate for maltol)
Marks after values point to notes of the source that are not given here.
Quantity name: pFe^III

1) CC(C)c1cccc(=O)c(O)c1: 23.7^†
2) O=c1cccccc1O: 22^+
3) Cc1occc(=O)c1O: 15.4^±
4) Cc1c(O)c(=O)ccn1C: 22^+

Measured values drawn from patent US12084411B2 for this set.
